Target: Wild type P450cam (Pseudomonas putida)
Assay type: binding, P. putida
Wild type Vs DTT values for the compounds below.
Could you keep your reply to the number by itself?

Illustrative cases are given below, each with its answer.
1) O=C(Oc1ccccc1)c1ccccc1 [Phenylbenzoate]: 5
2) O=C1c2ccccc2-c2ccccc21: 20

Summary line: c1ccc(C2CCCCC2)cc1 , Wild type P450cam (Pseudomonas putida), reported Wild type Vs DTT = 20

Hey, Wild type P450cam (Pseudomonas putida) data for CCCCCCCC : Wild type Vs DTT came out at 5

###

Target: P450cam active site mutant Y96F (also C334A) (Pseudomonas putida, UniProt P00183, C335A/Y97F)
Construct: reconstituted with putidaredoxin and putidaredoxin reductase
Sequence (P16640 whole entry): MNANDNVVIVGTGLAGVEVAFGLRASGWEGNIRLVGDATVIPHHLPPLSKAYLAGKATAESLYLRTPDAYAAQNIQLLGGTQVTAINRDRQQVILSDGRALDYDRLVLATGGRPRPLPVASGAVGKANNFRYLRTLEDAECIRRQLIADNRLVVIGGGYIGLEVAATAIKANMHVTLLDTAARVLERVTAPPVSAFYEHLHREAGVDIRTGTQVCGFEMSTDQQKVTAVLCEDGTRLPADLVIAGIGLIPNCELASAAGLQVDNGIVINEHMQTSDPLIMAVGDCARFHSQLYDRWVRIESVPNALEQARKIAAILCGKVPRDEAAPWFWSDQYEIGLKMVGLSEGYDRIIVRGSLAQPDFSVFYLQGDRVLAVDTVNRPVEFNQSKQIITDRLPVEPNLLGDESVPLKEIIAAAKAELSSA
Sequence (P00183 2-415 Y97F/C335A): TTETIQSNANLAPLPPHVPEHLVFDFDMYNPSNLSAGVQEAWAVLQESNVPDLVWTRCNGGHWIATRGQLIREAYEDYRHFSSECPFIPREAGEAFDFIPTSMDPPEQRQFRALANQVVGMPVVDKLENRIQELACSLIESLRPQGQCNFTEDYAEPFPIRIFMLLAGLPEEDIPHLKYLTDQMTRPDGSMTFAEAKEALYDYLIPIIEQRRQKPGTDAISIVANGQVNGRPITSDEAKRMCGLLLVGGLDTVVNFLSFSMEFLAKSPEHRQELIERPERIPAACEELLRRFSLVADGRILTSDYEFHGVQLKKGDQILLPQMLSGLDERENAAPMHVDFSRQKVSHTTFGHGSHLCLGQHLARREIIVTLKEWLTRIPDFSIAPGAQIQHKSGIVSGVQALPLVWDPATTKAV
Sequence (P00259 whole entry, further chain): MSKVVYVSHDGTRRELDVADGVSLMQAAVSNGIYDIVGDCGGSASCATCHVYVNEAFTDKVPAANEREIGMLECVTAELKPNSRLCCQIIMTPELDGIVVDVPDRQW
Assay type: biochemical, P. putida
Conditions: substrate cyclohexylbenzene; label = product
# Lookup of reported Products(%) Y96F keyed by entry
The figure you give is taken to be in %; do not add the unit.

Worked cases, Products(%) Y96F given:
1) OC1CCCC(c2ccccc2)C1 (stereo not shown) [L or D 3-ol]: 27
2) O[C@H]1CC[C@H](c2ccccc2)CC1 [Trans-4-ol]: 6
3) OC1CCCC(c2ccccc2)C1 (single isomer, unassigned) [3-ol]: 54

Here is another molecule to look at.
# Products(%) Y96F of O[C@H]1CC[C@@H](c2ccccc2)CC1 [Cis-4-ol] = 13

###

Target: P450cam active site mutant Y96A (also C334A) (Pseudomonas putida, UniProt P00183, C335A/Y97A)
Construct: reconstituted with putidaredoxin and putidaredoxin reductase
Sequence (P00183 2-415 Y97A/C335A, one chain of several): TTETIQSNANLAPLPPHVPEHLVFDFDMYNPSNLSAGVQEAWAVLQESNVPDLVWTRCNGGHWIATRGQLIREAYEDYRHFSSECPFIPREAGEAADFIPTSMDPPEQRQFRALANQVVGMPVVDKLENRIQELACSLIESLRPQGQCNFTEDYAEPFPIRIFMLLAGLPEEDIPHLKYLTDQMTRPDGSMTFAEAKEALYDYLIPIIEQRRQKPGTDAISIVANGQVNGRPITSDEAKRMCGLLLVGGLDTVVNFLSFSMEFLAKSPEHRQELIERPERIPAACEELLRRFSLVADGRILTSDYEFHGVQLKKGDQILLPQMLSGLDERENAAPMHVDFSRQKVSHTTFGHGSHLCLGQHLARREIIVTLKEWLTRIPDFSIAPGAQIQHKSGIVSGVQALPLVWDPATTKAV
Assay type: biochemical, P. putida
Conditions: substrate cyclohexylbenzene; label = product
Below, each entry is listed alongside its reported Products(%) Y96A.
Form entry: value (%) — number only.

1. OC1CCCC(c2ccccc2)C1 (stereo not shown) [L or D 3-ol]: 20

Per the records, this compound ( O[C@H]1CC[C@@H](c2ccccc2)CC1 [Cis-4-ol] ) has Products(%) Y96A equal to 45

Lab note: OC1CCCC(c2ccccc2)C1 (single isomer, unassigned) [3-ol] gave Products(%) Y96A of 20

Field Products(%) Y96A (entry O[C@H]1CC[C@H](c2ccccc2)CC1 [Trans-4-ol] ) reads 15

###

Target: P450cam active site mutant Y96L (also C334A) (Pseudomonas putida, UniProt P00183, C335A/Y97L)
Construct: reconstituted with putidaredoxin and putidaredoxin reductase
Sequence (P00183 2-415 Y97L/C335A, one chain of several): as the sequence (P00183 2-415 Y97A/C335A, one chain of several) above, with A96L counted along it
Format: biochemical, P. putida
Settings: substrate cyclohexylbenzene; label = product
QUANTITY_MEASURED: Products (%) Y96L
Form entry: value (%) — number only.

Please review the following examples before continuing.
1) OC1CCCC(c2ccccc2)C1 (stereo not shown) [L or D 3-ol]: 23
2) OC1CCCC(c2ccccc2)C1 (single isomer, unassigned) [3-ol]: 38
3) O[C@H]1CC[C@H](c2ccccc2)CC1 [Trans-4-ol]: 23

Please find the next compound below.
The recorded Products (%) Y96L for entry O[C@H]1CC[C@@H](c2ccccc2)CC1 [Cis-4-ol] equals 16

###

Molecular target: Wild type P450cam (Pseudomonas putida, UniProt P00183)
Sequence (P00183 whole entry): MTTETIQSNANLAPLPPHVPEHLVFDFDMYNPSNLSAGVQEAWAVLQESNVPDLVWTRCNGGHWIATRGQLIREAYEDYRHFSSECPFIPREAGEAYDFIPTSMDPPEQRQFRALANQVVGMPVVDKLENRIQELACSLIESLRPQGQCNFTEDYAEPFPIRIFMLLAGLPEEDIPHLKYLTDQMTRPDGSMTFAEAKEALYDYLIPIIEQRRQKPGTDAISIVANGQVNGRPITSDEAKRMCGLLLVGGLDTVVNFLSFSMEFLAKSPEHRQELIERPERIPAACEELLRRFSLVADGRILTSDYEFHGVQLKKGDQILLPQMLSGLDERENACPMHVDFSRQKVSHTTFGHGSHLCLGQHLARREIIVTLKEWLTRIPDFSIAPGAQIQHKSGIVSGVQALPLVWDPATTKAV
Sequence (P00259 whole entry, further chain): as the sequence (P00259 whole entry, further chain) above
Sequence (P16640 whole entry, further chain): as the sequence (P16640 whole entry) above
Assay: Turnover rate measured as NADH consumption rate
Assay type: biochemical, P. putida
Settings: small alkanes; background about 0.07
QUANTITY_MEASURED: Turnover rate (NADH consumption rate) Wild type

Record excerpt, results attached:
1. CCC(C)(C)C: background
2. CCCCC(C)C: background
3. C1CCCCCC1: 4.4 nmole NADH/nmole P450cam/s
4. CCCCC: background
5. CCC(C)C: background
6. CCCCCCCC: background
7. CCCCCCC: 2.7 nmole NADH/nmole P450cam/s
8. CCCC(C)C: 3.8 nmole NADH/nmole P450cam/s
9. CCCC(C)(C)C: 5.2 nmole NADH/nmole P450cam/s
10. CCC(C)CC: 1.3 nmole NADH/nmole P450cam/s

For CCCCCC the compound record lists Turnover rate (NADH consumption rate) Wild type as background

GET /value?item= CC(C)CC(C)C &field=Turnover rate (NADH consumption rate) Wild type returns 0.2 nmole NADH/nmole P450cam/s

Noted for CCC(CC)CC : its Turnover rate (NADH consumption rate) Wild type reads background

What the record says about CC(C)CC(C)(C)C : Turnover rate (NADH consumption rate) Wild type is 0.9 nmole NADH/nmole P450cam/s

Field Turnover rate (NADH consumption rate) Wild type (entry CCCCCC(C)C ) reads background

Form: compound = CCCC(C)CCC ; Turnover rate (NADH consumption rate) Wild type = 1.4 nmole NADH/nmole P450cam/s

Entry CC(C)C(C)C , Turnover rate (NADH consumption rate) Wild type reported as background

###

Biological target: P450cam WT (Pseudomonas putida, UniProt P00183)
Construct: reconstituted with putidaredoxin and putidaredoxin reductase
Assay: Product distribution following oxidation of substrates (GC)
Format: biochemical, P. putida
Settings: substrate cyclohexylbenzene; label = product
compounds and their reported Products (%) WT
Write it as a number; the unit % goes unstated.

Past entries and their recorded results:
1) O[C@H]1CC[C@@H](c2ccccc2)CC1 [Cis-4-ol]: 12
2) O[C@H]1CC[C@H](c2ccccc2)CC1 [Trans-4-ol]: 25
3) OC1CCCC(c2ccccc2)C1 (stereo not shown) [L or D 3-ol]: 20

For this compound ( OC1CCCC(c2ccccc2)C1 (single isomer, unassigned) [3-ol] ), measured Products (%) WT is 43

###

Molecular target: P450cam Mutant Y96A (Pseudomonas putida, UniProt P00183, C335A/Y97A)
Sequence (P00183 2-415 Y97A/C335A, one chain of several): as the sequence (P00183 2-415 Y97A/C335A, one chain of several) above
Assay type: binding, P. putida
Satisfied means recorded Mutant Y96A Vs DTT is 60 or above; Not satisfied means it is below 60.

1) C1CC[C@H]2CCCC[C@@H]2C1 [trans-Decahydro naphthalene]: Satisfied

Has CC1CCCCC1 a recorded Mutant Y96A Vs DTT greater than or equal to 60? Satisfied

Hi team, for C=C(C)[C@H]1CC=C(C)C(=O)C1 [(S)-(+)-Carvone] , is the recorded Mutant Y96A Vs DTT at or above 60? Satisfied

Would you say CC(C)CCCC(C)CCCC(C)CCCCC(C)CCCC(C)CCCC(C)C (stereo not drawn) shows Mutant Y96A Vs DTT at minimum 60? Not satisfied

Textbook exercise: given the entry C1=CCCCC1 , state whether its Mutant Y96A Vs DTT is greater than or equal to 60. Not satisfied

Dear colleague, could you confirm whether CCCCCCC has Mutant Y96A Vs DTT at or above 60? Not satisfied

###

Biological target: P450cam active site mutant Y96A (also C334A) (Pseudomonas putida, UniProt P00183, C335A/Y97A)
Construct: reconstituted with putidaredoxin and putidaredoxin reductase
Type: biochemical, P. putida
Conditions: substrate hexane; label = product
We begin with a simple list: items and their reported Products(%) Y96A.
Just the number please, in %, no unit attached.

Previously resolved entries follow.
1. CCCC(=O)CC [3-hexanone]: 28
2. CCCCC(C)O (stereo not shown) [2-hexanol]: 26
3. CCCCC(C)=O [2-hexanone]: 15

Now, please, on to the next compound.
Notebook: CCCC(O)CC (stereo not shown) [3-hexanol] , Products(%) Y96A read as 32

###

// reported Products(%) Y96A per item
Biological target: P450cam active site mutant Y96A (also C334A) (Pseudomonas putida, UniProt P00183, C335A/Y97A)
Construct: reconstituted with putidaredoxin and putidaredoxin reductase
Type: biochemical, P. putida
Details: substrate 2-methyl hexane; label = product
Experimental: A buffered solution (50 mM Tris.HCI, pH 7.4), typically 3 ml in volume, containing 10 uM putidaredoxin, 2 uM putidaredoxin reductase, 1 uM cytochrome P-450cam mono-oxygenase (wild-type or mutant), 200 mM KCI, 50 ug/ml bovine liver catalase (Sigma), and 1 mM target organic compound such as cyclohexylbenzene (added as a 0.1 M stock in ethanol) was preincubated at 30° C. for 5 minutes. […] The chloroform layer was analyzed by gas chromatography. […]
Express it in %; write the number only.

In the examples that follow, each entry is paired with its recorded Products(%) Y96A.
1. CCCCC(C)(C)O: 74
2. CCCC(O)C(C)C (stereo not shown): 4
3. CC(C)CCC(C)O (stereo not shown): 8

As a next step, examine the compound that follows.
Products(%) Y96A reported for this compound CC(=O)CCC(C)C : 14

###

Target: P450cam Y96A (also contains the C334A mutation) (Pseudomonas putida, UniProt P00183, C335A/Y97A)
Construct: reconstituted with putidaredoxin and putidaredoxin reductase
Sequence (P00183 2-415 Y97A/C335A, one chain of several): as the sequence (P00183 2-415 Y97A/C335A, one chain of several) above
Format: biochemical, P. putida
Conditions: small alkanes
QUANTITY_MEASURED: Turnover rate (NADH consumption rate) Y96A

Per the records, this compound ( CCCCCC(C)C ) has Turnover rate (NADH consumption rate) Y96A equal to 2.1 nmole NADH/nmole P450cam/s

Summary for this compound, CCC(CC)CC : Turnover rate (NADH consumption rate) Y96A is 16.2 nmole NADH/nmole P450cam/s

###

Turnover rate (NADH consumption rate) Y96A: recorded values
Target: P450cam Y96A (also contains the C334A mutation) (Pseudomonas putida, UniProt P00183, C335A/Y97A)
Construct: reconstituted with putidaredoxin and putidaredoxin reductase
Assay type: biochemical, P. putida
Settings: small alkanes

Solved entries (count: 2):
1) CCCCCCC: 4.4 nmole NADH/nmole P450cam/s
2) CCCC(C)C: 11.7 nmole NADH/nmole P450cam/s

Now look at this one.
For reference, reported Turnover rate (NADH consumption rate) Y96A for CCCC(C)(C)C stands at 12.8 nmole NADH/nmole P450cam/s
